Below: a set of entries, each annotated with reported Maximum decrease in systolic pressure.
- Test system: Spontaneously Hypertensive Rats
- EXPERIMENT SUMMARY: Antihypertensive action, tail-cuff systolic pressure in unanaesthetized SHR after i.p. administration
- Type: in vivo, Spontaneously Hypertensive Rats (female)
- MEASUREMENT PARAMETERS: 3 mg/kg intraperitoneally, Table 1 (Part 2)
MEASUREMENT KIND: Maximum decrease in systolic pressure (mmHg)

compound="CC1=C(C(=O)OCCCOC(C)C)C(c2ccccc2[N+](=O)[O-])c2c(C3CCCC3)nn(C)c2N1 (stereo not drawn) [(F)]" observed_result=53
compound="CC1=C(C(=O)OCC2CCCO2)C(c2ccccc2[N+](=O)[O-])c2c(C3CCCC3)nn(C)c2N1 (stereo not drawn) [(H)]" observed_result=0
compound="COC(=O)C1=C(C)NC(C)=C(C(=O)OC)C1c1ccccc1[N+](=O)[O-] [(A), Nifedipine, reference compound]" observed_result=45
compound="CC1=C(C(=O)OCCOc2ccccc2)C(c2ccccc2[N+](=O)[O-])c2c(C3CCCC3)nn(C)c2N1 (stereo not drawn) [(I)]" observed_result=74
compound="COc1ccc(CCOC(=O)C2=C(C)Nc3c(c(C4CCCC4)nn3C)C2c2cccc([N+](=O)[O-])c2)cc1OC (stereo not drawn) [(M)]" observed_result=86
compound="COCCOC(=O)C1=C(C)Nc2c(c(C3CCCC3)nn2C)C1c1cccc([N+](=O)[O-])c1 (stereo not drawn) [(C-2)]" observed_result=36
compound="COCCOC(=O)C1=C(C)Nc2c(c(CC3CCCC3)nn2C)C1c1ccccc1[N+](=O)[O-] (stereo not drawn) [(E)]" observed_result=26
compound="CC1=C(C(=O)OCCOC2CCCC2)C(c2ccccc2[N+](=O)[O-])c2c(C3CCCC3)nn(C)c2N1 (stereo not drawn) [(G)]" observed_result=53
compound="CC1=C(C(=O)OCCc2ccccc2)C(c2ccccc2[N+](=O)[O-])c2c(C3CCCC3)nn(C)c2N1 (stereo not drawn) [(K)]" observed_result=75
